systemTested: Rap guanine nucleotide exchange factor 4 (Homo sapiens)
assaySummary: Confirmatory qHTS for agonist of cAMP-regulated guanine nucleotide exchange factor 4 (EPAC2) (AID 1645884);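 note: nucleotide exchange releases bodipy-GDP from Rap1 and this lowers its fluorescence; nearly all actives have a fitted effect of over 65% in size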
statedConditions: EPAC2 GEF activity, Rap1B-BODIPY-GDP fluorescence; series mostly up to 154 µM
Results filed as inconclusive are left out. Activity calls are given as the source filed them. Calls come from the whole dose curve; as a rule, active = well fitted activation curve with a large enough effect; inconclusive = small, poorly fitted or top-dose-only effect; inactive = no such curve, though single readings can be large or run the other way.
reportedMetric: activation

Previously resolved entries follow.
C=CCn1cc(C(=O)NCCCOC)c(=O)c2cc(S(=O)(=O)N(CC)CC)ccc21 : inactive
O=C(Cn1c(=O)n(-c2ccccc2)c(=O)c2c3c(sc21)CCC3)c1ccc(Br)cc1 : inactive
COc1ccc(C)cc1Cn1nnc2ccccc21 : inactive
O=C(CCC1N=C2c3ccccc3N=C(SCc3ccc(Cl)cc3)N2C1=O)NCc1cccs1 (stereo unspecified) : inactive
CC1(C)C(OC(=O)CCC(=O)O)CC[C@]2(C)C1CC[C@@]1(C)C2C(=O)C=C2[C@@H]3C[C@@](C)(C(=O)O)CC[C@]3(C)CCC21C (stereo partly specified) : inactive
CS(=O)(=O)c1ccc(C(=O)OCc2nnc(-c3ccccc3)o2)cc1[N+](=O)[O-] : inactive
O=C1C(O)=C(O)C(=O)c2ccccc21 : inactive
CCCCN(CCCC)Cc1cc(=O)oc2cc(C)c(Cl)cc12 : inactive
COc1cc(/C=N/NS(=O)(=O)c2ccc3ccccc3c2)ccc1OCc1ccc(C(=O)O)cc1 : inactive
CCOc1cc(/C=N/O)cc(Br)c1OCc1ccc(Cl)cc1 : inactive

[ask] What measured activation goes with O=C(c1ccco1)N(Cc1cccs1)c1ccc(F)cc1 ?
[reply] inactive

[ask] Item CCN(C(=O)c1noc2c1COc1ccc(C)cc1-2)c1cccc(C)c1 has what recorded activation?
[reply] inactive

[ask] I would be grateful if you could share the reported activation for Cn1c(SCC(=O)Nc2cccc(C(=O)O)c2)nnc1-c1cc2cc(Br)ccc2o1 .
[reply] inactive

[ask] Recorded activation of COc1ccc(CNC(=O)C(C#N)c2nc3ccccc3nc2N2CCCC2)cc1 (stereo unspecified) , please.
[reply] inactive

[ask] What does the record list as activation for COC(=O)c1c(SC)nc2ccccc2c1OCc1ccc(C)cc1 ?
[reply] inactive

[ask] Query (molecule): Oc1ccc(NCc2ccc(OCc3ccccc3)cc2)cc1 ; field requested: activation
[reply] inactive

* * *

assaySummary: S16 Schwann cell viability assay (CellTiter-Glo assay) (AID 624031); note: nearly all actives have a fitted effect of over 70% in size
statedConditions: S16 rat Schwann cells viability, 24 h; series mostly up to 57.5 µM
Results filed as inconclusive are left out. Activity calls are given as the source filed them. The call rests on the fitted dose curve; in most records, active means well fitted cell-killing curve with a large enough effect; inconclusive means small, poorly fitted or top-dose-only effect, or effect the other way; inactive means flat fitted curve, though single readings scatter.
Outcomes you can answer with include only these: active, inactive

Solved entries (count: 5):
CCN1/C(=C/C=C/C=C/c2sc3ccccc3[n+]2CC)Sc2ccccc21 : active
S=C1NC=NC2N=CNC12 (stereo not drawn) : inactive
CCC(=O)O[C@@H](OP(=O)(CCCCc1ccccc1)CC(=O)N1C[C@H](C2CCCCC2)C[C@H]1C(=O)O)C(C)C (stereo partly drawn) : inactive
C1OCOCO1 : inactive
CO/N=C(/C(=O)N[C@@H]1C(=O)N2C(C(=O)O)=CCS[C@H]12)c1csc(N)n1 : inactive

[ask] Tell me the recorded outcome of this test for CO[C@@H]1[C@@H](OC2OC(C)C(OC3CC(C)(O)C(OC(=O)CC(C)C)C(C)O3)C(N(C)C)C2O)[C@@H](CC=O)C[C@@H](C)C(=O)/C=C\C2O[C@H]2C[C@@H](C)OC(=O)C[C@H]1OC(C)=O (stereo partly drawn) .
[reply] inactive

[ask] Can you look up the reported call for O=C(O)c1cc(O)c2c(c1)[C@H]([C@H]1c3cc(C(=O)O)cc(O)c3C(=O)c3c(O[C@@H]4OC(CO)C(O)C(O)C4O)cccc31)c1cccc(O[C@@H]3OC(CO)C(O)C(O)C3O)c1C2=O (stereo partly drawn) for me?
[reply] inactive

[ask] Call for entry CC1CCC(C(C)C)C(OC(=O)c2ccccc2O)C1 (stereo not drawn) :
[reply] inactive
